Ref: PubChem BioAssay AID782

measurement target: Eukaryotic translation initiation factor 4E (Mus musculus) + Eukaryotic translation initiation factor 4 gamma 1 (Homo sapiens) (UniProt P63073+Q04637)
Sequence (P63073 whole entry, looked up, the tested form may be a part): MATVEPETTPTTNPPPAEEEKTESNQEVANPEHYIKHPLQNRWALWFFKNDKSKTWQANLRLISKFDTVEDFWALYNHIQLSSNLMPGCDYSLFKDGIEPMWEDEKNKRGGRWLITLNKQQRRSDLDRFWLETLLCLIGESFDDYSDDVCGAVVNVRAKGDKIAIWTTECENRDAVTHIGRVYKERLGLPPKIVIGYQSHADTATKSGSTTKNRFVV
Sequence (Q04637 whole entry, looked up, the tested form may be a part): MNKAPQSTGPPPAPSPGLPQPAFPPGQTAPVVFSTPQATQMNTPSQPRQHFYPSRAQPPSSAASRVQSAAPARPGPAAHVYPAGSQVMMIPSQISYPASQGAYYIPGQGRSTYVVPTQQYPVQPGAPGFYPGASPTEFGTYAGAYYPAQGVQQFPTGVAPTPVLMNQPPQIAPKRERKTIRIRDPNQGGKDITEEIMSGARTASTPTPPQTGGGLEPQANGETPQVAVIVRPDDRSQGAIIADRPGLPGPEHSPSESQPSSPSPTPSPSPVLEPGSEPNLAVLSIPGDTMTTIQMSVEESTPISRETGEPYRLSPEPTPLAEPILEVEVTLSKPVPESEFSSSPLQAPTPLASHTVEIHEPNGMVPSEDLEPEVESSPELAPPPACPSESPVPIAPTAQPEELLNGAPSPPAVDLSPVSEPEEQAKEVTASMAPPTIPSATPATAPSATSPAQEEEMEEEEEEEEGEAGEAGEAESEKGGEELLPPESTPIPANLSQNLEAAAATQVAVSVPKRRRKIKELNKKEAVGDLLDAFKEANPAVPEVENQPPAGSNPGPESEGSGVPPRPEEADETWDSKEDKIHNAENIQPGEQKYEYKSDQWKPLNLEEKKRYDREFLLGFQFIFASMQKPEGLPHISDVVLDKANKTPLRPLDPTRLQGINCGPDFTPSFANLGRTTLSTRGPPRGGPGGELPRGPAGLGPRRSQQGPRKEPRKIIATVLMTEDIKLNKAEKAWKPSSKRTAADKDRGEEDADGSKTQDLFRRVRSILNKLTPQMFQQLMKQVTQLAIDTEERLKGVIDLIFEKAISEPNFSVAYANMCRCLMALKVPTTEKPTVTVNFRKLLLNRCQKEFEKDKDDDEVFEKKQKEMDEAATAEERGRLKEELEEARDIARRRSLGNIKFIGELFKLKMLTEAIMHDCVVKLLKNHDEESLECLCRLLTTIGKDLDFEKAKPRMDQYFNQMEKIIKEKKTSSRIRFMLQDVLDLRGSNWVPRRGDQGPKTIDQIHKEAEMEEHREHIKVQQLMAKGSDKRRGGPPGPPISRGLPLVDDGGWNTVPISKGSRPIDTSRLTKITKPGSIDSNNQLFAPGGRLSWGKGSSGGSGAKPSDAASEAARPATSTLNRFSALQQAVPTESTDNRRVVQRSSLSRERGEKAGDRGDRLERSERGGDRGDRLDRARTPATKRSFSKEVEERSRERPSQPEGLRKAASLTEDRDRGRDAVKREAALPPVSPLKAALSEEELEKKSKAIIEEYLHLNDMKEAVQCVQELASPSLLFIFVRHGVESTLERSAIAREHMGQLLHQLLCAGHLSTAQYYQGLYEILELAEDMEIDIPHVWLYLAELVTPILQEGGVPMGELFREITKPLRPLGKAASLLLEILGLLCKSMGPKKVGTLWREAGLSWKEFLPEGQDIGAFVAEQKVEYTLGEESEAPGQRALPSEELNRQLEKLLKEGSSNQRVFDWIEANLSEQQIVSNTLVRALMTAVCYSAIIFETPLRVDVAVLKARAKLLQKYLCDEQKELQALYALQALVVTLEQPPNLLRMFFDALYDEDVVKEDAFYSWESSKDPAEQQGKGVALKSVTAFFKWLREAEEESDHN
experimental protocol: eIF4E–eIF4G protein interaction inhibitors, primary screen, biochemical, uHTS, TR-FRET, eIF4GI fragment (AID 782);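 also: 0% = full FRET control wells and 100% = background wells lacking eIF4GI fragment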
condition info: TR-FRET eIF4E-eIF4GI(517-606) binding, 2 h; at 21.7 µM; stronger effect = higher value
The campaign covered roughly 220,000 compounds. About 800 (0.36%) were called active. This is one part of a sample in which actives are shown more often than they occur.
quantity measured: inhibition (%)
Give the quantity in %, number only.

Previously resolved entries follow.
CC(C)(C)CN1C(=O)C(=O)NC[C@H]1Cc1cccc2ccccc12: 3.22
COC(=O)c1ccc(CSc2nc3ccccc3c(=O)n2-c2cccc(OC)c2)o1: 2.4
COCC(C)n1c(SCc2ccc(C(=O)OC)o2)nc2ccccc2c1=O (stereo unspecified): 56
Cc1c(Cl)cccc1NC(=S)NCc1ccc2c(c1)OCO2: 3.45
Cc1noc(C)c1CSc1nc2cc(S(=O)(=O)N3CCOCC3)ccc2o1: 38.2

Task: Consider the molecule CC(=O)c1c(Nc2ccccc2)sc(C(=O)c2ccccc2)c1C . State its measured inhibition.
Output: 0.53

Task: Return reported inhibition. Input molecule: COC(=O)[C@@H]1C[C@@]2(O)[C@H](O)[C@H](O)[C@H](O)C[C@H]2N1Cc1ccc(C(C)(C)C)cc1
Output: -5.29

Task: Please give the documented inhibition of O=C(NC(Cc1c[nH]c2ccccc12)C(=O)O)/C(=C/c1ccco1)NC(=O)c1ccccc1 (stereo unspecified)
Output: 1.5

Task: Give recorded inhibition. COc1ccc(NC(=O)c2oc3ccc(S(=O)(=O)N4CCOCC4)cc3c2C)cc1
Output: -0.4

Task: Tell me its inhibition given O=C(Nc1ccc(-c2csc(Nc3cccc(C(F)(F)F)c3)n2)cc1)c1cccc(C(F)(F)F)c1 as the entry.
Output: -4.77
